FYI, the data here is from paper PMC5962572.

# tested system: PaDHDPR (Paenisporosarcina sp. TG-14, UniProt A0A3B6UER2, K37A)
# Construct: full length, residues 1-264; pET-28a N-terminal His tag removed by thrombin; homotetramer
# Sequence (A0A3B6UER2 entry or part of it K37A): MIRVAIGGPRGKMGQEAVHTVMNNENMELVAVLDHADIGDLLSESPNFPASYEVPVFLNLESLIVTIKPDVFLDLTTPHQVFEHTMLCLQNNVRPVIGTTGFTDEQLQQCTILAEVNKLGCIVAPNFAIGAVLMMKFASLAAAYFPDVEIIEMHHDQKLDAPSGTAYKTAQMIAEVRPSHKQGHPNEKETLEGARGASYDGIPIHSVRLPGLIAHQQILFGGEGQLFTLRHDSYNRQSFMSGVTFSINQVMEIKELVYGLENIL
# test name: isothermal titration calorimetry, one-site model
measure name: pKd
Expect pKd as a plain number equal to -log10 of the molar concentration.

Task: I would be grateful if you could share the reported pKd for NC(=O)C1=CN([C@@H]2O[C@H](COP(=O)(O)OP(=O)(O)OC[C@H]3O[C@@H](n4cnc5c(N)ncnc54)[C@H](OP(=O)(O)O)[C@@H]3O)[C@@H](O)[C@H]2O)C=CC1 .
Result: 3.63

###

# tested system: PaDHDPR (Paenisporosarcina sp. TG-14, UniProt A0A3B6UER2)
# Construct: full length, residues 1-264; pET-28a N-terminal His tag removed by thrombin; homotetramer
# Sequence (A0A3B6UER2 2-265): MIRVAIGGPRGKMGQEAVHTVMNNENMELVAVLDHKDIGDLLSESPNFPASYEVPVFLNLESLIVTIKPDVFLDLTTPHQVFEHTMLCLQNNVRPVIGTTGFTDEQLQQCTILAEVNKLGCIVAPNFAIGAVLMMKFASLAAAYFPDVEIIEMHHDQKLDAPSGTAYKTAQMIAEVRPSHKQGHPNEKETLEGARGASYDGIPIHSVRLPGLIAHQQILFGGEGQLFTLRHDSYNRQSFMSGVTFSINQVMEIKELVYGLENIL
# test name: isothermal titration calorimetry, one-site model
measure name: pKd
Expect pKd as a plain number equal to -log10 of the molar concentration.

Task: pKd of NC(=O)C1=CN([C@@H]2O[C@H](COP(=O)(O)OP(=O)(O)OC[C@H]3O[C@@H](n4cnc5c(N)ncnc54)[C@H](OP(=O)(O)O)[C@@H]3O)[C@@H](O)[C@H]2O)C=CC1 on PaDHDPR (Paenisporosarcina sp. TG-14, UniProt A0A3B6UER2)?
Result: 4.43
